experiment: Evaluation of conversion rate to active form in buffer solution (Experimental Example 1); assay type: physicochemical; conditions: pH5.0, 2 hr
Quick list: Production rate of Alvocidib per entry.
Return type: number; implicit unit %.

CC(C)[C@H](N)C(=O)O[C@@H]1CN(C)CC[C@@H]1c1c(O)cc(O)c2c(=O)cc(-c3ccccc3Cl)oc12 [Comparative Example 10, reference compound]
3.7
CN1CC[C@H](c2c(O)cc(O)c3c(=O)cc(-c4ccccc4Cl)oc23)[C@H](OC(=O)[C@@H](N)CO)C1 [Comparative Example 9, reference compound]
12.8
C[C@H](N)C(=O)O[C@@H]1CN(C)CC[C@@H]1c1c(O)cc(O)c2c(=O)cc(-c3ccccc3Cl)oc12 [Comparative Example 7, reference compound]
15.7

(Q) # Production rate of Alvocidib lookup, item CNCCN(C)C(=O)Oc1cc(O)c2c(=O)cc(-c3ccccc3Cl)oc2c1[C@H]1CCN(C)C[C@H]1O [Comparative Example 14, reference compound]
(A) 53.7

Sourced from patent US12617779B2
